- Tested on: Mycobacterium tuberculosis H37Rv
- Procedure Details: Antimycobacterial activity against Mycobacterium tuberculosis H37Rv infected in human THP-1 macrophages assessed as reduction in microbial growth incubated for 72 hrs
- Type: functional
MIC50 less than 4 µM is T; MIC50 greater than or equal to 4 µM is F.

Study these solved cases before continuing.
C[C@@H]([C@H](NC(=O)[C@H](Cc1ccc2ccccc2c1)NC(=O)N[C@@H](Cc1c[nH]c2ccccc12)C(=O)OCC(C)(C)C)C(=O)NC[C@H]1C[C@@H](O)[C@H](n2ccc(=O)[nH]c2=O)O1)N(C)C(=O)CN : T
C[C@@H]([C@H](NC(=O)[C@H](Cc1ccc2ccccc2c1)NC(=O)N[C@@H](Cc1c[nH]c2ccccc12)C(=O)O)C(=O)NC[C@H]1C[C@@H](O)[C@H](n2ccc(=O)[nH]c2=O)O1)N(C)C(=O)CN : F
CCCCCCNC(=O)[C@H](Cc1c[nH]c2ccccc12)NC(=O)N[C@@H](Cc1ccc2ccccc2c1)C(=O)N[C@H](C(=O)NC[C@H]1C[C@@H](O)[C@H](n2ccc(=O)[nH]c2=O)O1)[C@H](C)N(C)C(=O)CN : T
C[C@@H]([C@H](NC(=O)[C@H](Cc1ccc2ccccc2c1)NC(=O)N[C@@H](Cc1c[nH]c2ccccc12)C(=O)OCc1ccccc1)C(=O)NC[C@H]1C[C@@H](O)[C@H](n2ccc(=O)[nH]c2=O)O1)N(C)C(=O)CN : F
C[C@@H]([C@H](NC(=O)[C@H](CC1CCCCC1)NC(=O)N[C@@H](Cc1c[nH]c2ccccc12)C(=O)NCc1ccccc1)C(=O)NC[C@H]1C[C@@H](O)[C@H](n2ccc(=O)[nH]c2=O)O1)N(C)C(=O)CN : F

Asked: is_below(MIC50, 4 µM) for C[C@@H]([C@H](NC(=O)[C@H](CC1CCCCC1)NC(=O)N[C@@H](Cc1c[nH]c2ccccc12)C(=O)O)C(=O)NC[C@H]1C[C@@H](O)[C@H](n2ccc(=O)[nH]c2=O)O1)N(C)C(=O)CN ?
Given back: T

Asked: is_below(MIC50, 4 µM) for C[C@@H]([C@H](NC(=O)[C@H](CC1CCCCC1)NC(=O)N[C@@H](Cc1c[nH]c2ccccc12)C(=O)OCc1ccccc1)C(=O)NC[C@H]1C[C@@H](O)[C@H](n2ccc(=O)[nH]c2=O)O1)N(C)C(=O)CN ?
Given back: F

Asked: is_below(MIC50, 4 µM) for C[C@@H]([C@H](NC(=O)[C@H](CC1CCCCC1)NC(=O)N[C@@H](Cc1c[nH]c2ccccc12)C(=O)NCC(C)(C)C)C(=O)NC[C@H]1C[C@@H](O)[C@H](n2ccc(=O)[nH]c2=O)O1)N(C)C(=O)CN ?
Given back: F

Asked: is_below(MIC50, 4 µM) for CCCCCCOC(=O)[C@H](Cc1c[nH]c2ccccc12)NC(=O)N[C@@H](Cc1ccc2ccccc2c1)C(=O)N[C@H](C(=O)NC[C@H]1C[C@@H](O)[C@H](n2ccc(=O)[nH]c2=O)O1)[C@H](C)N(C)C(=O)CN ?
Given back: T

Asked: is_below(MIC50, 4 µM) for C[C@@H]([C@H](NC(=O)[C@H](CC1CCCCC1)NC(=O)N[C@@H](Cc1c[nH]c2ccccc12)C(=O)OCC(C)(C)C)C(=O)NC[C@H]1C[C@@H](O)[C@H](n2ccc(=O)[nH]c2=O)O1)N(C)C(=O)CN ?
Given back: F

Asked: is_below(MIC50, 4 µM) for C[C@@H]([C@H](NC(=O)[C@H](Cc1ccc2ccccc2c1)NC(=O)N[C@@H](Cc1c[nH]c2ccccc12)C(=O)NCc1ccccc1)C(=O)NC[C@H]1C[C@@H](O)[C@H](n2ccc(=O)[nH]c2=O)O1)N(C)C(=O)CN ?
Given back: T

Just for reference, ChEMBL document CHEMBL5055683 is where these values come from.
